Hey, just so you know, these numbers are from patent US20210363269A1.

# TARGET ENTITY: T1, cynomolgus SIRP-α D1 domain (cyno2) (cynomolgus monkey, UniProt Q5TFQ8 30-148 (human entry), limits assumed)
# T1 chain: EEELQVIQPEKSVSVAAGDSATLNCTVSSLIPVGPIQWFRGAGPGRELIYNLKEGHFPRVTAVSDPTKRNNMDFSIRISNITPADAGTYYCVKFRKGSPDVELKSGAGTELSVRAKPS
# PROTOCOL TEXT: SPR, Langmuir fit
Consider the following binders; for each one, report its koff.
Answers are plain numbers, in s⁻¹.

S24 (scFv, V domains shown, also called clone 24) VH: DVQLVESGGGVVRPGESLRLSCAASGFTFSSNAMSWVRQAPGKGLEWLAGISAGGSDTYYPASVKGRFTISRDNPKNTLYLQMNTLTAEDTAVYYCARETWNHLFDYWGLGTLVTVSS VL: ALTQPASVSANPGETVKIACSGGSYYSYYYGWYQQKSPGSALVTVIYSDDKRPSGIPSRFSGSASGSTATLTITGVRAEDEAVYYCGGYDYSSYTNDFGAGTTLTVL
0.000334

State the recorded koff for every item in the following list.
1. S16 (scFv, V domains shown, also called clone 16) VH: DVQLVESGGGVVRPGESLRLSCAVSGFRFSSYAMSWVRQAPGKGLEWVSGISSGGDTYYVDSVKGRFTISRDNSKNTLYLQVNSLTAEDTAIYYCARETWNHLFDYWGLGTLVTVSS VL: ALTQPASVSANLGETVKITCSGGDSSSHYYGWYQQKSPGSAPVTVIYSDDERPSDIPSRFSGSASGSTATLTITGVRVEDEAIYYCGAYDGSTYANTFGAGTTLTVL
2. S194 (scFv, V domains shown) VH: DVQLVESGGGVVRPGESLRLSCAASGFTFRNYGMSWVRQAPGEGLEWVSASSGSGSTYYADSVKGRFTISRDNSKNTLYLQMNSLRAEDTAIYYCAKVTWNNFFDYWGLGTLVTVSS VL: EIVLAQSPDTLSVSPGERATLTCRASQDVAGKLAWYQQKPGQAPRLLIHATSSRADGIPARFSGSGSGTEFTLTITGLQSEDFAVYYCQQHYDWSPLTFGGGTKVEIK
3. S74 (scFv, V domains shown, also called clone 74) VH: DVQLVESGGGVVRPGESLRLSCAASGFTFSSNAMSWVRQAPGKGLEWLAGISAGDSDTYYPASVKGRFTISRDNPKNTLYLQMNTLTAEDTAVYYCARETWNHLFDYWGLGTLVTVSS VL: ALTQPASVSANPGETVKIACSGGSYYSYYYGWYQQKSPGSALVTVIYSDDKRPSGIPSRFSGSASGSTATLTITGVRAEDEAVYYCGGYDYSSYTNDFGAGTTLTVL
4. S70 (scFv, V domains shown, also called clone 70) VH: DVQLVESGGGVVRPGESLRLSCAASGFTFSSYAMSWVRQAPGKGLEWLAGISAGGSDAYYIDSVKGRFTISRDNSKNSLYLQMNSLTAEDTAVYYCARETWNHLFDYWGLGTLVTVSS VL: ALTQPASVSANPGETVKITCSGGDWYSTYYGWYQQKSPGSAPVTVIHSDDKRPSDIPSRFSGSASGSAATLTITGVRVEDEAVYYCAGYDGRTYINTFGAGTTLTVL

Reply:
0.000138
0.00111
0.00032
0.000245
